Measured values drawn from patent US20260274955A1 for this set.

Task for the reader: assign each of the following binders its reported Anti-CD28 Fab signal.
TARGET DESC: T1, Anti-CD28 Fab (SEQ ID NOs: 202, 203)
T1 construct: biotinylated and captured on neutravidin coated plates in the phage ELISA
T1 sequence (VH, as listed by the source, chain 1 of 2): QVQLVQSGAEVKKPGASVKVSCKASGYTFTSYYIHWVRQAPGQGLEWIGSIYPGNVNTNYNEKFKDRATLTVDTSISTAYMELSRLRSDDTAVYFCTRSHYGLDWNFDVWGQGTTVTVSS
T1 sequence (VL, as listed by the source, chain 2 of 2): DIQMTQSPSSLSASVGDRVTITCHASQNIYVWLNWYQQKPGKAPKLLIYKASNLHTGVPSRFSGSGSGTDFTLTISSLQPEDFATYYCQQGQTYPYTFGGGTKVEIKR
MEASUREMENT NOTES: phage ELISA on captured biotinylated Fab;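 also: wells preblocked with or without CD28 antigen, then clonal phage supernatant added briefly, washed, and bound phage read out by ELISA using HRP-linked anti-M13 antibody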

Please fill in: Anti-CD28 Fab signal reported for YCDGHSDQYMWKCL [Phage-261] = 2

Measured Anti-CD28 Fab signal of YCDGHAPDYMLKCL [Phage-152] : 2.2

The binder YCEGHLSQYMQKCL [Phage-259] showed Anti-CD28 Fab signal equal to 2

Input YCEGHSAEYMNKCL [Phage-226] . Output Anti-CD28 Fab signal: 2.06

What the record says about YCDGHIPIYMSKCL [Phage-189] : Anti-CD28 Fab signal is 2.13

Reported Anti-CD28 Fab signal for YCMGHLPQYMEKCL [Phage-212] was 2.08

The binder listed as YCDGHSSEYMIKCL [Phage-277] has a reported Anti-CD28 Fab signal of 1.95

Form: binder = YCDGHSQEYIAKCL [Phage-265] ; Anti-CD28 Fab signal = 1.99

// field: Anti-CD28 Fab signal; key: YCEGHLPQYLAKCL [Phage-190] ; value = 2.12

binder YCAGHLEIYMNKCL [Phage-283] , Anti-CD28 Fab signal observed: 1.94

Quick note, Anti-CD28 Fab signal for YCAGHMPEYIDKCL [Phage-296] landed at 1.92

Record YCEGHLPQYLQKCL [Phage-176] , field Anti-CD28 Fab signal: 2.16

According to the records, this binder YCEGHRPEYMQKCL [Phage-249] displays Anti-CD28 Fab signal of 2.03

Anti-CD28 Fab signal for YCAGHAPEYIQKCL [Phage-172] is 2.17

Item: YCAGHLPEYISKCL [Phage-188] | Anti-CD28 Fab signal: 2.14

Entry under test: YCDGHLGIYMWKCL [Phage-183] . Its Anti-CD28 Fab signal was 2.14
